Recorded % CD4 Stain, one value per entry.
molecular target: T1, human CD4 on human PBMCs (human, UniProt P01730 26-458); experiment: FACS, clonal hybridoma supernatant on PBMCs
T1 construct: whole, on cells; the CD4-positive gate was set with the control antibodies OKT4 and RPA-T4; also called hCD4
ENDPOINT_NAME: % CD4 Stain (%)

{"BINDER": "75110_04H17A (antibody, V domains shown, Tested as clonal hybridoma supernatant of an AlivaMab Mouse Kappa antibody (human variable regions, kappa; detected with anti-mouse Fc)) VH: QVQLQESGPGLVKPSETLSLTCTVSGGSISTYYWSWIRQSAGKGLEWIGRIYTSERPNYNPSLKSRVTMSVDTSKNQFSLKLNSVSAADTAVYYCARELERPYYYGMDVWGQGTTVTVSS VL: DVQMTQSPSSLSASVGGRVTITCQASQDISNYLNWYQQKPGKAPKLLIYYASNLETGVPSRFSGSGSGTDFTFTISSLQPEDFATYYCQQYDNLPLTFGGGTKVEIK", "ENDPOINT_NAME": "% CD4 Stain", "ASSAY_RESULT": 28.8}
{"BINDER": "75110_04P08A (antibody, V domains shown, Tested as clonal hybridoma supernatant of an AlivaMab Mouse Kappa antibody (human variable regions, kappa; detected with anti-mouse Fc)) VH: QVQLQQWGAGLLKPSETLSLTCAVYGGSLSGYYWSWIRQSPGKGLEWIGEINQSGSTNYNPSLKSRVTISVDTSKDQFSLRLTSVTAADTAVYYCTRVLNWFDPWGRGTLVTVSS VL: DIQMTQSPSSVSASVGDRVTLTCRASQDISNWLAWYQQKPGKAPKLLIYAASSLQSGVPSRFSGSGSGTDFTLTISSLQTEDFATYYCQQANSFPYTFGQGTKLEIK", "ENDPOINT_NAME": "% CD4 Stain", "ASSAY_RESULT": 36.4}
{"BINDER": "75110_04K10A (antibody, V domains shown, Tested as clonal hybridoma supernatant of an AlivaMab Mouse Kappa antibody (human variable regions, kappa; detected with anti-mouse Fc)) VH: EVQLVESGGGLVQPGGSLRLSCAASGFTFSSYWMSWVRQAPGKGLEWVANINQDGSEKYYVDSVKGRFTISRDNAKNSLYLQLNSLRAEDTAMYYCAREGGQWLSLDYWGQGTLVTVSS VL: DIQMTQSPSSVSASVGDRVTITCRASQGISSWLAWYQQKPGKAPKVLIYGVSSFQSGVPSRFSGSGSGTDFILTISSLQPEDFATYYCQQANSFPWTFGQGTKVEIK", "ENDPOINT_NAME": "% CD4 Stain", "ASSAY_RESULT": 35.6}
{"BINDER": "75110_04B08A (antibody, V domains shown, Tested as clonal hybridoma supernatant of an AlivaMab Mouse Kappa antibody (human variable regions, kappa; detected with anti-mouse Fc)) VH: QVQLVESGGGVVQPGRSLRLSCTASGFNFINYGIHWVRQAPGKGLEWVTIIWYDGSKKYYADSVKGRFAISRDNSKNTLYLQMNSLRAEDTAVYYCAREDDWNDGLAYWGQGTLVTVSS VL: AIQMTQSPSSLSASVGDRVTITCRASQDIRNDLGWYQQKPGKAPNLLIYAASNLQSGVPSRFSGSGSGTDFTLTISSLQPEDFATYYCLQDSNYPRTFGQGTKVEIK", "ENDPOINT_NAME": "% CD4 Stain", "ASSAY_RESULT": 40.6}
{"BINDER": "75110_05K11A (antibody, V domains shown, Tested as clonal hybridoma supernatant of an AlivaMab Mouse Kappa antibody (human variable regions, kappa; detected with anti-mouse Fc)) VH: EVQLVESGGGLVQPGGSLRLSCAASGFTFSSYDMHWVRQPTGKGLEWVSTIGTAGDTYYPASVKGRFTISRENAKNSLYLQMNSLRAGDTAVYYCARGGFYYYGMDVWGQGTTVTVSS VL: EIVLTQSPGTLSLSPGERVTLSCRASQSVSNTYLAWYQQKPGQAPRLLIYGASSRATGIPDRFSGSGSGTDFTLTISRLEPEDFVVYYCQQHGSSPFTFGPGTKVDIK", "ENDPOINT_NAME": "% CD4 Stain", "ASSAY_RESULT": 38.1}
